Target: 5-HT2 receptors (Rattus norvegicus, UniProt P14842)
Sequence (P14842 whole entry): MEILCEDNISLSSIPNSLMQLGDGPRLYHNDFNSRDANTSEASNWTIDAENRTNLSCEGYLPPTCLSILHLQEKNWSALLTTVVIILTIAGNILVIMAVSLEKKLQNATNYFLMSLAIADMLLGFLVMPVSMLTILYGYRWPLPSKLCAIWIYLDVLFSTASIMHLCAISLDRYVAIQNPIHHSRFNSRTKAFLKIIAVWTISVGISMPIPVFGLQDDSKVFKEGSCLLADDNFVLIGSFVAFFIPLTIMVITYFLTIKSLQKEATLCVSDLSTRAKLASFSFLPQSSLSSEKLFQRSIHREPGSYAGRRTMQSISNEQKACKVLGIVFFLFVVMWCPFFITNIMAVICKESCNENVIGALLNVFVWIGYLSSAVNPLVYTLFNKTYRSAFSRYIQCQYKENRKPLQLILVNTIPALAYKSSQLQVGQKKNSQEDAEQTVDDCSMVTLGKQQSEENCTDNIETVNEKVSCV
Structures can show the parent of a compound that is named as a salt.
Hi there, I'd appreciate the recorded Ki for every entry that follows.
Give bare numbers, in nM.

The following molecules have reported results that may help.
Query: // query Ki value for entry O=C(N1CCCC1)N1CCN(CCOC(c2ccc(F)cc2)c2ccc(F)cc2)CC1 [6:2, hydrochloride]
Response: 15

Query: // query Ki value for entry CCNC(=O)N1CCN(CCCC(c2ccc(F)cc2)c2ccc(F)cc2)CC1 [Amperozide, reference compound]
Response: 17

Query: // query Ki value for entry CCNC(=O)N1CCN(CCOC(c2ccc(F)cc2)c2ccc(F)cc2)CC1 [3:1, hydrochloride]
Response: 60

We now examine a further molecule.
Query: // query Ki value for entry CNC(=S)N1CCN(CCOC(c2ccc(F)cc2)c2ccc(F)cc2)CC1 [3:4, hydrochloride]
Response: 20

* * *

Target: D2 -receptors (Rattus norvegicus, UniProt P61169)
Sequence (P61169 whole entry): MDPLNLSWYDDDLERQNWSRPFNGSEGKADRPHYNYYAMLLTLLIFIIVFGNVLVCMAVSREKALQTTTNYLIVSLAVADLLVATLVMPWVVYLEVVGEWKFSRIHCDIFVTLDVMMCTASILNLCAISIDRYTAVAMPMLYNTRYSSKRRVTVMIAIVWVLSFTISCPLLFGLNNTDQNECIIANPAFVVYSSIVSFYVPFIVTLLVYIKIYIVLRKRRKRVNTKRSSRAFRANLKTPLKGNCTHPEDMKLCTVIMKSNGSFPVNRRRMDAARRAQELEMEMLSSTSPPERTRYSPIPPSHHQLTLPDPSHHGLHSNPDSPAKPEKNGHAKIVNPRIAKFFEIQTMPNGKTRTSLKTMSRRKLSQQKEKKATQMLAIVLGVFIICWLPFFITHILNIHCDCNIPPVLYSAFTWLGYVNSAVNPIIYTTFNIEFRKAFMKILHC
Assay: Affinity to D2-receptors (3H-spiroperidol binding)
Details: 3H-spiroperidol as ligand
Where a name gives a salt, the structure may show the parent alone.
Hi there, I'd appreciate the recorded pKi for every entry that follows.
Answers are plain numbers, as −log10 of the molar value.

Query: // query pKi value for entry O=C(N1CCCC1)N1CCN(CCOC(c2ccc(F)cc2)c2ccc(F)cc2)CC1 [6:2, hydrochloride]
Response: 5.75

Query: // query pKi value for entry CNC(=S)N1CCN(CCOC(c2ccc(F)cc2)c2ccc(F)cc2)CC1 [3:4, hydrochloride]
Response: 5.80

We now examine a further compound.
Query: // query pKi value for entry CCNC(=O)N1CCN(CCCC(c2ccc(F)cc2)c2ccc(F)cc2)CC1 [Amperozide, reference compound]
Response: 6.27
